study.target: mouse BLyS protein (mouse, UniProt Q9WU72 69-309)
Sequence (Q9WU72 69-309): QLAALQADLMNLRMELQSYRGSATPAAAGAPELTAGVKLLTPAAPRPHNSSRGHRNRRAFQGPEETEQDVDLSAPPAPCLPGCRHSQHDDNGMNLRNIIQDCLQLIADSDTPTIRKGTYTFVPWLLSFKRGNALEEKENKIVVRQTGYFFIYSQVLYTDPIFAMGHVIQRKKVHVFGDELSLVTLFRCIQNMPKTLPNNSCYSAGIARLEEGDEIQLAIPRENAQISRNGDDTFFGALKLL
experiment: cell-based or functional assay
mouse B lymphocyte proliferation (OD450 nm), antibody 0.0064 nM listing for selected binders.
Report the value in OD450 nm with no unit label.

In the examples that follow, each entry is paired with its recorded mouse B lymphocyte proliferation (OD450 nm), antibody 0.0064 nM.
{"columns": ["binder", "endpoint.unit", "reading"],
 "data": [
  ["89A2G5E7 (antibody, V domains shown, Mouse hybridoma monoclonal antibody purified on Protein G) VH: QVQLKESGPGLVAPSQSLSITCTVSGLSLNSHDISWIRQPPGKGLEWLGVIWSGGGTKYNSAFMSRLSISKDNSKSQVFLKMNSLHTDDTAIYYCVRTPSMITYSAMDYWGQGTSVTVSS VL: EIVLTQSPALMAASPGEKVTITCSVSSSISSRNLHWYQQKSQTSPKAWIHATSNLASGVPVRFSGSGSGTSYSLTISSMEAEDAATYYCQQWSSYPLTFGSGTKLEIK", "OD450 nm", 2170],
  ["78C11D2D12 (antibody, V domains shown, Mouse hybridoma monoclonal antibody purified on Protein G) VH: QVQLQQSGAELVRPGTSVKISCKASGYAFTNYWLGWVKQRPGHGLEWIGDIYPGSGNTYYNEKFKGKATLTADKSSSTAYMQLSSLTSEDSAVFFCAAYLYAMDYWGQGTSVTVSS VL: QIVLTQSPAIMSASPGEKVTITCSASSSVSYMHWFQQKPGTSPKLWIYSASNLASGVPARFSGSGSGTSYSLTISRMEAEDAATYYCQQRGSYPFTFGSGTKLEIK", "OD450 nm", 2240],
  ["111D10D6G3 (antibody, V domains shown, Mouse hybridoma monoclonal antibody purified on Protein G) VH: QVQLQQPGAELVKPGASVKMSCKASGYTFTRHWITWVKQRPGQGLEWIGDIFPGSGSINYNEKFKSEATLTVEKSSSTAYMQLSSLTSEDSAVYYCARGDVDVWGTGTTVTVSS VL: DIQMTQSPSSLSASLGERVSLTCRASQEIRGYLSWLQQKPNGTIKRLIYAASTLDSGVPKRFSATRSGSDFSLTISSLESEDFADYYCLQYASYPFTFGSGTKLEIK", "OD450 nm", 2130],
  ["L9G7 (antibody, V domains shown, From a human naive scFv phage library; also called human BLyS antibody L9G7) VH: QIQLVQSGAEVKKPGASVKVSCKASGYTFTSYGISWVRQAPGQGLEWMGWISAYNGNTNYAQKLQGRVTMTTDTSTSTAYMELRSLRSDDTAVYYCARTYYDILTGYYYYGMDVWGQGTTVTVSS VL: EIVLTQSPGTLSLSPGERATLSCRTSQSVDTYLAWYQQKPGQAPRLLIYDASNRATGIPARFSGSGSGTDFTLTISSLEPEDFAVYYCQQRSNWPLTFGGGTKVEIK", "OD450 nm", 2460]
]}

Turning now to a further record.
Exercise: Answer with reported mouse B lymphocyte proliferation (OD450 nm), antibody 0.0064 nM of 35E6F7C3 (antibody, V domains shown, Mouse hybridoma monoclonal antibody purified on Protein G) VH: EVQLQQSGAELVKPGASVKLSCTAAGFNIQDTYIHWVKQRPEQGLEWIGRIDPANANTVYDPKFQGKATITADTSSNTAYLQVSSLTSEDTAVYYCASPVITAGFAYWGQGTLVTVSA VL: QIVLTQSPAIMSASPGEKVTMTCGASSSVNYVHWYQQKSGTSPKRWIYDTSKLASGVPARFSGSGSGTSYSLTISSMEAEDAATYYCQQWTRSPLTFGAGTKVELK
Key: 2520

Each recorded value in this set is attributed to patent US20210347873A1.
